Tested on: Fibroblast growth factor receptor 1 (Homo sapiens)
Sequence (P11362 whole entry, the tested form may be a part): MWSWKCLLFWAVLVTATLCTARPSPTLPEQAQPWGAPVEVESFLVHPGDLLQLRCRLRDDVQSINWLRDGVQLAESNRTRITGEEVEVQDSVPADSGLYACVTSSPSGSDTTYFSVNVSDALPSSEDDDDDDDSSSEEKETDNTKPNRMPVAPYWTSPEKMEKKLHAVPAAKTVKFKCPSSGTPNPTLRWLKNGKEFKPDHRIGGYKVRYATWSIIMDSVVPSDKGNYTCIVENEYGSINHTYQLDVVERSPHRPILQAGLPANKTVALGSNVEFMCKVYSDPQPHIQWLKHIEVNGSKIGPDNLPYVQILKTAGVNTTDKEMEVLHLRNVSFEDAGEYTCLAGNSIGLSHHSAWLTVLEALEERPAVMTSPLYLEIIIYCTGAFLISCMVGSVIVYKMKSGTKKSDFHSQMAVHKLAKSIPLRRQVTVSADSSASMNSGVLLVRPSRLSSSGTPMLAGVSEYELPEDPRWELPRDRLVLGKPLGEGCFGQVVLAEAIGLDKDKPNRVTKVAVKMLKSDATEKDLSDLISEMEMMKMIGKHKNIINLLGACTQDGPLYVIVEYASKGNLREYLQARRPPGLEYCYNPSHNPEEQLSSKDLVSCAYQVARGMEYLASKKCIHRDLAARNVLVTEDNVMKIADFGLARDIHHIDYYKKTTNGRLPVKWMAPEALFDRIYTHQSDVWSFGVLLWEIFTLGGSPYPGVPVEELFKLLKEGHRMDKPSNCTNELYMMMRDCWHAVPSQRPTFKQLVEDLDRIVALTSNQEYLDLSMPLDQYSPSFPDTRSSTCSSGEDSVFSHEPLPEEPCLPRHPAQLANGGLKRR
Test summary: Inhibition Assay: FGFR1: The in vitro activity of FGFR1 was determined by assaying the phosphorylation level of the substrate in the kinase reaction, by means of an HTRF kinase assay kit. The reaction buffer comprised the following components: 5-fold diluted Enzymatic buffer/kinase 5× (main ingredient: 50 mM HEPES, pH 7.0), 5 mM MgCl2, 1 mM DTT; the human recombinant FGFR1 catalytic structural domain protein (amino acids 308-731) was purified by the company itself, diluted with the reaction buffer to a 0.6 ng/μL kinase solution; the substrate reaction solution comprised a biotin labeled tyrosine kinase substrate diluted with the reaction buffer to 400 nM , and 40 μM ATP, and the assay solution comprised an Eu3+ labeled cage-shaped antibody diluted with the assay buffer to 0.125 ng/μL, and 25 nM streptavidin labeled XL665.
Listing: IC50 of selected molecules

Here's what some known entries look like.
Smiles notation	Tested on	Experimental value
COCCOc1cc(NC(=O)N(C)c2ccc(CN3CCOCC3=O)c(C=O)n2)ncc1C#N	Fibroblast growth factor receptor 1 (Homo sapiens)	> 1000 nM
CN1CCN(Cc2ccc(N(C)C(=O)Nc3cc(Cl)c(C#N)cn3)nc2C=O)C(=O)C1	Fibroblast growth factor receptor 1 (Homo sapiens)	> 1000 nM
COC[C@H](C)Oc1cc(NC(=O)N(C)c2ccc(CN3CCN(C)CC3=O)c(C=O)n2)ncc1C#N	Fibroblast growth factor receptor 1 (Homo sapiens)	> 1000 nM

Lab request: please report IC50 under test system Fibroblast growth factor receptor 1 (Homo sapiens) for COC[C@@H](C)Oc1cc(NC(=O)N(C)c2ccc(CN3CCN(C)CC3=O)c(C=O)n2)ncc1C#N > 1000 nM

Lab request: please report IC50 under test system Fibroblast growth factor receptor 1 (Homo sapiens) for CC(C)Oc1cc(NC(=O)N(C)c2ccc(CN3CCN(C)CC3=O)c(C=O)n2)ncc1C#N > 1000 nM
